Test system: Escherichia coli
method_notes: Antibacterial activity against Escherichia coli MTCC 739 at 300 ug/ml by cup-plate method
Format: functional
details: read-out: DIZ
Hi there, I'd appreciate the recorded zone of inhibition at 300 µg/mL for every entry that follows.
Numbers only, in mm.

Below, each entry is followed by its recorded zone of inhibition at 300 µg/mL result.
> print(dat)
                         chemical.structure               measured.attribute  assay.result
1   O=C1N/C(=N\c2cccc(Cl)c2)S/C1=C\c1ccccc1  zone of inhibition at 300 µg/mL             8
2   O=C1N/C(=N\c2ccc(Cl)cc2)S/C1=C\c1ccccc1  zone of inhibition at 300 µg/mL            12
3  COc1cc(/C=C2\S/C(=N/c3ccc(F)c(Cl)c3)NC2=O)ccc1O  zone of inhibition at 300 µg/mL             9
4  O=C1N/C(=N\c2ccc(Cl)cc2)S/C1=C\c1ccccc1Cl  zone of inhibition at 300 µg/mL             9
5  O=C1N/C(=N\c2ccc(F)c(Cl)c2)S/C1=C\c1ccccc1[N+](=O)[O-]  zone of inhibition at 300 µg/mL            12

Input line: Please give the documented zone of inhibition at 300 µg/mL of O=C1N/C(=N\c2ccc(Cl)cc2)S/C1=C\c1ccccc1[N+](=O)[O-]
Output line: 9

* * *

System: Escherichia coli
method_notes: Antibacterial activity against Escherichia coli MTCC 739 at 300 ug/ml by cup-plate method
Assay type: functional
details: read-out: DIZ
Record form. Attribute: zone of inhibition at 300 µg/mL. Fill in for each entry.
Numbers only, in mm.

Worked cases, zone of inhibition at 300 µg/mL given:
> print(dat)
                         chemical.structure               measured.attribute  assay.result
1  O=C1N/C(=N\c2cccc(Cl)c2)S/C1=C\c1cccc([N+](=O)[O-])c1  zone of inhibition at 300 µg/mL             8
2  O=C1N/C(=N\c2ccc(F)c(Cl)c2)S/C1=C\c1ccc(O)cc1  zone of inhibition at 300 µg/mL            10
3  O=C1N/C(=N\c2cccc(Cl)c2)S/C1=C\c1ccccc1Cl  zone of inhibition at 300 µg/mL             8

The following compounds each have a reported value; give each one's zone of inhibition at 300 µg/mL.
1. COc1cc(/C=C2\S/C(=N/c3ccc(Cl)cc3)NC2=O)ccc1O
2. O=C1N/C(=N\c2ccc(Cl)cc2)S/C1=C\c1ccc(Cl)cc1

Output line:
1. 9
2. 9

* * *

Tested on: Pseudomonas aeruginosa
method_notes: Antibacterial activity against Pseudomonas aeruginosa MTCC 2453 at 100 ug/ml by cup-plate method
Assay type: functional
details: read-out: DIZ
Would you kindly list zone of inhibition at 100 µg/mL for each of these compounds?
Numbers only, in mm.

Guide cases for zone of inhibition at 100 µg/mL, answers given:
> print(dat)
                         chemical.structure  uom  assay.result
1  O=C1N/C(=N\c2ccc(F)c(Cl)c2)S/C1=C\c1ccccc1Cl   mm            10
2  O=C1N/C(=N\c2ccc(Cl)cc2)S/C1=C\c1cccc([N+](=O)[O-])c1   mm             9
3  O=C1N/C(=N\c2ccc(F)c(Cl)c2)S/C1=C\c1cccc([N+](=O)[O-])c1   mm            10
4   O=C1N/C(=N\c2ccc(Cl)cc2)S/C1=C\c1ccccc1   mm             8
5  O=C1N/C(=N\c2cccc(Cl)c2)S/C1=C\c1ccc(O)cc1   mm             8

For every item below, please supply its zone of inhibition at 100 µg/mL.
1. O=C1N/C(=N\c2ccc(Cl)cc2)S/C1=C\c1ccc(O)cc1
2. COc1cc(/C=C2\S/C(=N/c3cccc(Cl)c3)NC2=O)ccc1O
3. O=C1N/C(=N\c2ccc(F)c(Cl)c2)S/C1=C\c1ccccc1
4. O=C1N/C(=N\c2ccc(Cl)cc2)S/C1=C\c1ccccc1Cl

Output line:
1. 8
2. 8
3. 10
4. 9

Parameter requested: zone of inhibition at 100 µg/mL. Apply to each item below.
1. COc1cc(/C=C2\S/C(=N/c3ccc(Cl)cc3)NC2=O)ccc1O
2. O=C1N/C(=N\c2cccc(Cl)c2)S/C1=C\c1ccccc1Cl

Output line:
1. 7
2. 7

* * *

System: Bacillus subtilis
method_notes: Antibacterial activity against Bacillus subtilis MTCC 121 at 200 ug/ml by cup plate method
Assay type: functional
details: read-out: DIZ
measured_attribute: zone of inhibition at 200 µg/mL (mm)
Give bare numbers, in mm.

# example entries with known answers
> print(dat)
                         chemical.structure  assay.result
1  O=C1N/C(=N\c2ccc(F)c(Cl)c2)S/C1=C\c1ccc(Cl)cc1            11
2  O=C1N/C(=N\c2cccc(Cl)c2)S/C1=C\c1ccccc1Cl             8
3  O=C1N/C(=N\c2ccc(F)c(Cl)c2)S/C1=C\c1ccc(O)cc1            10
4  O=C1N/C(=N\c2cccc(Cl)c2)S/C1=C\c1cccc([N+](=O)[O-])c1             9

Input line: Give a short answer stating reported zone of inhibition at 200 µg/mL for O=C1N/C(=N\c2cccc(Cl)c2)S/C1=C\c1ccccc1[N+](=O)[O-] .
Output line: 9

* * *

System: Escherichia coli
method_notes: Antibacterial activity against Escherichia coli MTCC 739 at 50 ug/ml by cup-plate method
Format: functional
details: read-out: DIZ
Please provide measured zone of inhibition at 50 µg/mL for the entries that follow.

> print(dat)
                         chemical.structure              measured.attribute  assay.result
1  O=C1N/C(=N\c2ccc(Cl)cc2)S/C1=C\c1ccccc1Cl  zone of inhibition at 50 µg/mL          9 mm
2  O=C1N/C(=N\c2ccc(F)c(Cl)c2)S/C1=C\c1ccccc1  zone of inhibition at 50 µg/mL          7 mm
3   O=C1N/C(=N\c2ccc(Cl)cc2)S/C1=C\c1ccccc1  zone of inhibition at 50 µg/mL          7 mm
4  O=C1N/C(=N\c2ccc(F)c(Cl)c2)S/C1=C\c1ccccc1Cl  zone of inhibition at 50 µg/mL          8 mm

Hey, can you go through the list below and give me zone of inhibition at 50 µg/mL for every item?
1. O=C1N/C(=N\c2ccc(F)c(Cl)c2)S/C1=C\c1cccc([N+](=O)[O-])c1
2. COc1cc(/C=C2\S/C(=N/c3cccc(Cl)c3)NC2=O)ccc1O
3. O=C1N/C(=N\c2ccc(F)c(Cl)c2)S/C1=C\c1ccc(Cl)cc1

Output line:
["7 mm", "7 mm", "9 mm"]

Please state, for each entry, its recorded zone of inhibition at 50 µg/mL.
1. O=C1N/C(=N\c2ccc(F)c(Cl)c2)S/C1=C\c1ccc(O)cc1
2. O=C1N/C(=N\c2cccc(Cl)c2)S/C1=C\c1ccc(Cl)cc1
3. O=C1N/C(=N\c2cccc(Cl)c2)S/C1=C\c1ccccc1[N+](=O)[O-]
4. O=C1N/C(=N\c2cccc(Cl)c2)S/C1=C\c1ccc(O)cc1

Output line:
8 mm
7 mm
6 mm
7 mm

Quick one: give me zone of inhibition at 50 µg/mL for each item below, same order please.
1. COc1cc(/C=C2\S/C(=N/c3ccc(F)c(Cl)c3)NC2=O)ccc1O
2. COc1cc(/C=C2\S/C(=N/c3ccc(Cl)cc3)NC2=O)ccc1O
3. O=C1N/C(=N\c2ccc(Cl)cc2)S/C1=C\c1cccc([N+](=O)[O-])c1
4. O=C1N/C(=N\c2ccc(Cl)cc2)S/C1=C\c1ccc(Cl)cc1
5. O=C1N/C(=N\c2cccc(Cl)c2)S/C1=C\c1ccccc1
6. O=C1N/C(=N\c2ccc(F)c(Cl)c2)S/C1=C\c1ccccc1[N+](=O)[O-]

Output line:
7 mm
7 mm
7 mm
8 mm
7 mm
8 mm

# per-item lookup of zone of inhibition at 50 µg/mL; items listed below
1. O=C1N/C(=N\c2cccc(Cl)c2)S/C1=C\c1ccccc1Cl
2. O=C1N/C(=N\c2cccc(Cl)c2)S/C1=C\c1cccc([N+](=O)[O-])c1
3. O=C1N/C(=N\c2ccc(Cl)cc2)S/C1=C\c1ccccc1[N+](=O)[O-]
4. O=C1N/C(=N\c2ccc(Cl)cc2)S/C1=C\c1ccc(O)cc1

Output line:
1: 7 mm; 2: 7 mm; 3: 6 mm; 4: 7 mm

* * *

System: Pseudomonas aeruginosa
method_notes: Antibacterial activity against Pseudomonas aeruginosa MTCC 2453 at 100 ug/ml by cup-plate method
Assay type: functional
details: read-out: DIZ
measured_attribute: zone of inhibition at 100 µg/mL (mm)
Give bare numbers, in mm.

Worked examples follow.
> print(dat)
                         chemical.structure               measured.attribute  assay.result
1  O=C1N/C(=N\c2ccc(F)c(Cl)c2)S/C1=C\c1ccc(Cl)cc1  zone of inhibition at 100 µg/mL             9
2  O=C1N/C(=N\c2cccc(Cl)c2)S/C1=C\c1cccc([N+](=O)[O-])c1  zone of inhibition at 100 µg/mL             8
3  O=C1N/C(=N\c2cccc(Cl)c2)S/C1=C\c1ccc(Cl)cc1  zone of inhibition at 100 µg/mL             8
4  O=C1N/C(=N\c2ccc(Cl)cc2)S/C1=C\c1ccccc1[N+](=O)[O-]  zone of inhibition at 100 µg/mL             8
5  O=C1N/C(=N\c2ccc(Cl)cc2)S/C1=C\c1ccc(Cl)cc1  zone of inhibition at 100 µg/mL             7

// next entry
Input line: Read the entry O=C1N/C(=N\c2cccc(Cl)c2)S/C1=C\c1ccccc1 and write its reported zone of inhibition at 100 µg/mL.
Output line: 7
